Data origin, for the record: patent US8507481B2

# Protocol description: In vivo pharmacokinetic trial in rat (gavage and intravenous injection)
# Design: species or system SD male rats
# Conditions: male, SD, plasma, po, 15 mg/kg, gavage 15 mg/kg, mean of 4 animals, read-out: Tmax
Readout type: Tmax (h)
Please respond with the number in h and leave the unit unwritten.

Sample `CC(=O)NC[C@@H]1OC(=O)N2c3ccc(-c4ccc(C#N)nc4)cc3OC[C@@H]12` ; Tmax observed: 4

====

# Protocol description: In vivo pharmacokinetic trial in rat (gavage and intravenous injection)
# Set-up: species or system SD male rats
# Conditions: male, SD, plasma, po, gavage 15 mg/kg, calculated as AUC0-t, read-out: F (absolute bioavailability)
Readout type: bioavailability (%)
Use % as the unit, but write only the number.

Lookup result for `CC(=O)NC[C@@H]1OC(=O)N2c3ccc(-c4ccc(C#N)nc4)cc3OC[C@@H]12` ; measured bioavailability: 81.2

====

# Protocol description: In vivo pharmacokinetic trial in rat (gavage and intravenous injection)
# Design: species or system SD male rats
# Conditions: male, SD, plasma, iv, 15 mg/kg, intravenous injection 15 mg/kg, individual animals No. 5-6, read-out: Vz
Readout type: Vd (L/kg)
Please respond with the number in L/kg and leave the unit unwritten.

Measured Vd of `CC(=O)NC[C@@H]1OC(=O)N2c3ccc(-c4ccc(C#N)nc4)cc3OC[C@@H]12` : 1.55

====

# Protocol description: In vivo pharmacokinetic trial in rat (gavage and intravenous injection)
# Set-up: species or system SD male rats
# Conditions: male, SD, plasma, po, 15 mg/kg, gavage 15 mg/kg, individual animals No. 1-4, read-out: MRT
Readout type: MRT (h)
Return type: number; implicit unit h.

Sample `CC(=O)NC[C@@H]1OC(=O)N2c3ccc(-c4ccc(C#N)nc4)cc3OC[C@@H]12` ; MRT observed: 7.96

====

# Protocol description: In vivo pharmacokinetic trial in rat (gavage and intravenous injection)
# Set-up: species or system SD male rats
# Conditions: male, SD, plasma, po, 15 mg/kg, gavage 15 mg/kg, individual animals No. 1-4
Readout type: half-life (min)
Numeric only. Scale: min

The molecule listed as `CC(=O)NC[C@@H]1OC(=O)N2c3ccc(-c4ccc(C#N)nc4)cc3OC[C@@H]12` shows half-life equal to 336

====

# Protocol description: In vivo pharmacokinetic trial in rat (gavage and intravenous injection)
# Parameters: species or system SD male rats
# Conditions: male, SD, plasma, iv, 15 mg/kg, intravenous injection 15 mg/kg, individual animals No. 5-6
Readout type: half-life (h)
Kindly answer with a numeric value in h, unit omitted.

Memo: `CC(=O)NC[C@@H]1OC(=O)N2c3ccc(-c4ccc(C#N)nc4)cc3OC[C@@H]12` , reported half-life: 5.44

====

# Protocol description: In vivo pharmacokinetic trial in rat (gavage and intravenous injection)
# Parameters: species or system SD male rats
# Conditions: male, SD, plasma, iv, 15 mg/kg, intravenous injection 15 mg/kg, mean of 2 animals, read-out: Vz
Readout type: Vd (L/kg)
Please state the figure in L/kg; there is no need to write the unit.

The compound `CC(=O)NC[C@@H]1OC(=O)N2c3ccc(-c4ccc(C#N)nc4)cc3OC[C@@H]12` showed Vd equal to 1.48

====

# Protocol description: In vivo pharmacokinetic trial in rat (gavage and intravenous injection)
# Parameters: species or system SD male rats
# Conditions: male, SD, plasma, iv, 15 mg/kg, intravenous injection 15 mg/kg, mean of 2 animals, read-out: MRT
Readout type: MRT (h)
Form entry: value (h) — number only.

CC(=O)NC[C@@H]1OC(=O)N2c3ccc(-c4ccc(C#N)nc4)cc3OC[C@@H]12 [Compound 7] yielded MRT of 8.37
